Target: recombinant human plasminogen activator inhibitor-1 (PAI-1) (Homo sapiens, UniProt P05121)
Construct: purchased Molecular Innovations, Royal Oak, Mich
Experiment: Screening for PAI-1 inhibition (chromogenic tPA activity assay)
Type: biochemical
# if value of inhibition at 25 µM reaches 60%, tag 1; if it stays below, tag -1

record smiles: Cc1c(-c2ccccc2)n(Cc2ccccc2)c2cc(-c3ccc(OCC(=O)O)cc3)ccc12
assigned class: -1
//
record smiles: CCCCCc1c(-c2ccccc2)n(C)c2ccc(-c3ccc(OCC(=O)O)cc3)cc12
assigned class: 1
//
record smiles: Cn1c(-c2ccccc2)c(Cc2ccccc2)c2cc(-c3ccc(OCC(=O)O)cc3)ccc21
assigned class: -1
//
record smiles: c1ccc(Cc2c(-c3ccccc3)n(Cc3ccccc3)c3ccc(-c4ccc(OCc5nnn[nH]5)cc4)cc23)cc1
assigned class: -1

Shifting focus to the compound that follows.
(Q) Quick check: does `Cn1c(-c2ccccc2)c(Cc2ccccc2)c2cc(-c3ccc(OCc4nnn[nH]4)cc3)ccc21` have inhibition at 25 µM greater than or equal to 60%?
(A) -1

###

Let's look at some compounds and their measured melting point.

Below, each entry is followed by its recorded melting point result.
record smiles: O=C(O)COc1ccc(-c2ccc3c(c2)c2c(n3Cc3ccccc3)CCCC2)cc1
melting point: 176 to 180 °C
//
record smiles: Cc1c(-c2ccccc2)n(C)c2cccc(-c3ccc(OCC(=O)O)cc3)c12
melting point: 177 to 180 °C
//
record smiles: CCCCCc1c(-c2ccccc2)n(C)c2ccc(-c3ccc(OCC(=O)O)cc3)cc12
melting point: 146 to 148 °C
//
record smiles: Cc1c(-c2ccccc2)n(Cc2ccccc2)c2cc(-c3ccc(OCC(=O)O)cc3)ccc12
melting point: 202 to 205 °C
//
record smiles: CCCCCc1c(-c2ccccc2)n(Cc2ccccc2)c2ccc(-c3ccc(OCC(=O)O)cc3)cc12
melting point: 141 to 143 °C
//
record smiles: Cc1c(-c2ccccc2)n(Cc2ccccc2)c2ccc(-c3ccc(OCC(=O)O)cc3)cc12
melting point: 173.5 to 175 °C

(Q) Can you look up the measured melting point of `Cc1c(C)n(Cc2ccccc2)c2ccc(-c3ccc(OCC(=O)O)cc3)cc12` for me?
(A) 203 to 206 °C

(Q) Fill in the blank: the reported melting point of `Cc1c(Cc2ccccc2)c2cc(-c3ccc(OCc4nnn[nH]4)cc3)ccc2n1Cc1ccccc1` is ____.
(A) 190 to 192 °C

(Q) Entry `Cc1c(Cc2ccccc2)c2cc(-c3ccc(OCC(=O)O)cc3)ccc2n1C` : reported melting point = ?
(A) 204 to 207 °C

###

readout name: melting point

In the examples that follow, each entry is paired with its recorded melting point.
record smiles: Cc1c(Cc2ccccc2)c2cc(-c3ccc(OCC(=O)O)cc3)ccc2n1Cc1ccccc1
readout name: melting point
result value: 180 to 183 °C
--
record smiles: CCCCCc1c(-c2ccccc2)n(Cc2ccccc2)c2ccc(-c3ccc(OCc4nnn[nH]4)cc3)cc12
readout name: melting point
result value: 165 to 168 °C
--
record smiles: O=C(O)COc1ccc(-c2ccc3c(c2)c(Cc2ccccc2)c(-c2ccccc2)n3Cc2ccccc2)cc1
readout name: melting point
result value: 153 to 155 °C

(Q) Item under review: `Cc1c(-c2ccccc2)n(Cc2ccccc2)c2cccc(-c3ccc(OCC(=O)O)cc3)c12` . Reported melting point?
(A) 82 to 86 °C

(Q) Request the reported melting point associated with `Cc1c(-c2ccccc2)n(Cc2ccccc2)c2cccc(-c3ccc(OCc4nnn[nH]4)cc3)c12`
(A) 174 to 177 °C

(Q) Item `Cn1c(-c2ccccc2)c(Cc2ccccc2)c2cc(-c3ccc(OCC(=O)O)cc3)ccc21` has what recorded melting point?
(A) 179 to 181 °C

###

Listing of entries alongside the reported IC50.
Target: human PAI-1 (Homo sapiens, UniProt P05121)
Sequence (P05121 24-402): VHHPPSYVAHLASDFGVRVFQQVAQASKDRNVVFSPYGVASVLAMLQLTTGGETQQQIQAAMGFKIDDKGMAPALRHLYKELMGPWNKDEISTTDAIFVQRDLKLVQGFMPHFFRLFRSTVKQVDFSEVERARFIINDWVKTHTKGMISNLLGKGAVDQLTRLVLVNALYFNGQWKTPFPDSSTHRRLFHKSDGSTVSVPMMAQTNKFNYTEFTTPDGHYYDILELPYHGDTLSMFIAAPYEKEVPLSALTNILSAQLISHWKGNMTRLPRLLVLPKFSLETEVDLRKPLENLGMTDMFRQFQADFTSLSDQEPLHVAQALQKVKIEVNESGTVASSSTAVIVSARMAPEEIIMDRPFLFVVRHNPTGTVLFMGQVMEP
Just the number please, in µM, no unit attached.

(Q) IC50 of `Cc1c(Cc2ccccc2)c2cc(-c3ccc(OCC(=O)O)cc3)ccc2n1Cc1ccccc1` on human PAI-1 (Homo sapiens, UniProt P05121)?
(A) 25.3

(Q) # value lookup — system human PAI-1 (Homo sapiens, UniProt P05121), readout IC50, item `Cc1c(-c2ccccc2)n(Cc2ccccc2)c2cc(-c3ccc(OCc4nnn[nH]4)cc3)ccc12`
(A) 36.9

(Q) Quick check: IC50 on human PAI-1 (Homo sapiens, UniProt P05121), item `Cc1c(-c2ccccc2)n(Cc2ccccc2)c2ccc(-c3ccc(OCC(=O)O)cc3)cc12` ?
(A) 18.1

(Q) # get_value(readout= IC50, system= human PAI-1 (Homo sapiens, UniProt P05121)) for `Cc1c(C)n(Cc2ccccc2)c2ccc(-c3ccc(OCc4nnn[nH]4)cc3)cc12`
(A) 28.2
